Provide the recorded IC50 for the entries that follow.
molecular target: UniProt P56817; test: Inhibition of BACE1 in HEK293 cells expressing swedish double mutant APP assessed as amyloid beta (1 to 40) peptide level after 7 hrs by HTRF assay; format: cell-based
Sequence (P56817 whole entry): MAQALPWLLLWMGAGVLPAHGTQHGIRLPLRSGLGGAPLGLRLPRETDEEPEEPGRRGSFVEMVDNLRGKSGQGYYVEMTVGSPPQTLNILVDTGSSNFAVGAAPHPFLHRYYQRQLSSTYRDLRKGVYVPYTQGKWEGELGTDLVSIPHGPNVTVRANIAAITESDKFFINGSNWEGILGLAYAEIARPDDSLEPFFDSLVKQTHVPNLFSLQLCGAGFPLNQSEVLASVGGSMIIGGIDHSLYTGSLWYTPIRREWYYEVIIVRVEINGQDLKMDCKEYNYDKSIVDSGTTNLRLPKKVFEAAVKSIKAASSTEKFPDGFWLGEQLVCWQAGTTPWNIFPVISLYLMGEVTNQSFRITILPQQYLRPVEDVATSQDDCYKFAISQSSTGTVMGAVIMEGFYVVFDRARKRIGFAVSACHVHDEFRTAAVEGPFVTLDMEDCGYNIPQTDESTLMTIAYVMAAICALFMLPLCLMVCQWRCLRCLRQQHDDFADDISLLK
Answers are plain numbers, in nM.

Past entries and their recorded results:
C[C@]12CCCO[C@@H]1[C@]1(CSC(N)=N1)c1cc(-c3cncc(Cl)c3)ccc1O2 (relative stereo) : 48
C[C@@]12CCCO[C@H]1[C@]1(COC(N)=N1)c1cc(-c3cccnc3F)ccc1O2 (relative stereo) : 130
CN1C(=O)[C@]2(N=C1N)c1cc(-c3cccnc3F)ccc1O[C@@H]1CCCO[C@H]12 (relative stereo) : 1900

For the 6 compounds below, give their IC50 values.
1. CN1C(=O)[C@]2(N=C1N)c1cc(-c3cccnc3F)ccc1O[C@H]1CCCO[C@@H]12 (relative stereo)
2. CN1C(=O)[C@]2(N=C1N)c1cc(-c3cccnc3F)ccc1O[C@]1(C)CCCO[C@H]12 (relative stereo)
3. CN1C(=O)[C@]2(N=C1N)c1cc(-c3cccnc3F)ccc1O[C@@]1(C)CCCO[C@@H]12 (relative stereo)
4. C[C@]12CCCO[C@@H]1[C@]1(CSC(N)=N1)c1cc(-c3cncnc3)ccc1O2 (relative stereo)
5. C[C@]12CCCO[C@@H]1[C@]1(COC(N)=N1)c1cc(-c3cccc(C#N)c3)ccc1O2 (racemic)
6. C[C@]12CCCO[C@@H]1[C@]1(COC(N)=N1)c1cc(-c3cccnc3F)ccc1O2 (relative stereo)

1: 12; 2: 37; 3: 5.7; 4: 81; 5: 100; 6: 60

For the 2 compounds below, give their IC50 values.
1. C[C@]12CCCO[C@@H]1[C@]1(CSC(N)=N1)c1cc(-c3cccc(C#N)c3)ccc1O2 (relative stereo)
2. NC1=N[C@@]2(CS1)c1cc(-c3cccnc3F)ccc1O[C@@H]1CCCO[C@H]12

[140, 550]

For the 3 compounds below, give their IC50 values.
1. C[C@]12CCCO[C@@H]1[C@]1(CSC(N)=N1)c1cc(-c3cc(F)cc(Cl)c3)ccc1O2 (relative stereo)
2. NC1=N[C@@]2(CO1)c1cc(-c3cccnc3F)ccc1O[C@@H]1CCCO[C@H]12
3. C[C@]12CCCO[C@@H]1[C@]1(COC(N)=N1)c1cc(-c3cc(F)cc(Cl)c3)ccc1O2 (relative stereo)

110
759
93

For the 4 compounds below, give their IC50 values.
1. C[C@]12CCCO[C@@H]1[C@]1(COC(N)=N1)c1cc(-c3cncc(Cl)c3)ccc1O2 (racemic)
2. C[C@]12CCCO[C@@H]1[C@]1(COC(N)=N1)c1cc(-c3cccc(C#N)c3)ccc1O2
3. C[C@]12CCCO[C@@H]1[C@]1(COC(N)=N1)c1cc(-c3cncnc3)ccc1O2 (single isomer, unassigned)
4. C[C@]12CCCO[C@@H]1[C@]1(CSC(N)=N1)c1cc(-c3cccnc3F)ccc1O2 (relative stereo)

1: 37; 2: 39; 3: 56; 4: 86

====

system: Mus musculus; test: Unbound clearance in CD-1 mouse at 3 mg/kg, iv and 10 mg/kg, po; format: ADME, organism-based; conditions: in vivo
Provide the recorded CL free for the entries that follow.
Answers are plain numbers, in mL/min/kg.

Past entries and their recorded results:
C[C@]12CCCO[C@@H]1[C@]1(COC(N)=N1)c1cc(-c3cccnc3F)ccc1O2 (relative stereo) : 1300
C[C@]12CCCO[C@@H]1[C@]1(COC(N)=N1)c1cc(-c3cccc(C#N)c3)ccc1O2 (racemic) : 870
CN1C(=O)[C@]2(N=C1N)c1cc(-c3cccnc3F)ccc1O[C@H]1CCCO[C@@H]12 (relative stereo) : 600

Now for a further compound.
Briefly, CL free measured for "CN1C(=O)[C@]2(N=C1N)c1cc(-c3cccnc3F)ccc1O[C@H]1CCOC[C@@H]12" : 330

====

test system: MDR1 (human); test: Apparent permeability from apical to basolateral side in pig LLC-PK1 cells transfected with human MDR1; type: ADME, cell-based, Sus scrofa; conditions: LLC-PK1
Define the label as Condition met when Papp A→B is strictly less than 6 ×10⁻⁶ cm/s and as Condition not met in all remaining cases.

Solved cases (5 shown):
C[C@]12CCCO[C@@H]1[C@]1(COC(N)=N1)c1cc(-c3cncc(Cl)c3)ccc1O2 (racemic) : Condition not met
C[C@@]12CCCO[C@H]1[C@]1(COC(N)=N1)c1cc(-c3cccnc3F)ccc1O2 (relative stereo) : Condition not met
C[C@]12CCCO[C@@H]1[C@]1(COC(N)=N1)c1cc(-c3cccnc3F)ccc1O2 (relative stereo) : Condition not met
C[C@]12CCCO[C@@H]1[C@]1(COC(N)=N1)c1cc(-c3cncnc3)ccc1O2 (single isomer, unassigned) : Condition not met
C[C@]12CCCO[C@@H]1[C@]1(CSC(N)=N1)c1cc(-c3cncnc3)ccc1O2 (relative stereo) : Condition not met

I wonder whether C[C@]12CCCO[C@@H]1[C@]1(CSC(N)=N1)c1cc(-c3cc(F)cc(Cl)c3)ccc1O2 (relative stereo) has Papp A→B below 6 ×10⁻⁶ cm/s. Can you tell? Condition met

I wonder whether CN1C(=O)[C@]2(N=C1N)c1cc(-c3cccnc3F)ccc1O[C@@]1(C)CCCO[C@@H]12 (relative stereo) has Papp A→B below 6 ×10⁻⁶ cm/s. Can you tell? Condition met

I wonder whether C[C@]12CCCO[C@@H]1[C@]1(COC(N)=N1)c1cc(-c3cccc(C#N)c3)ccc1O2 (racemic) has Papp A→B below 6 ×10⁻⁶ cm/s. Can you tell? Condition not met

I wonder whether "NC1=N[C@@]2(CS1)c1cc(-c3cccnc3F)ccc1O[C@@H]1CCCO[C@H]12" has Papp A→B below 6 ×10⁻⁶ cm/s. Can you tell? Condition not met

I wonder whether C[C@]12CCCO[C@@H]1[C@]1(COC(N)=N1)c1cc(-c3cc(F)cc(Cl)c3)ccc1O2 (relative stereo) has Papp A→B below 6 ×10⁻⁶ cm/s. Can you tell? Condition met

====

assay: Drug level in Sprague-Dawley rat CSF at 60 mg/kg, po measured at 5 hrs post dose; type: ADME, organism-based, Cerebrospinal fluid; parameters: dose 60 mg/kg, route oral; settings: read-out: Drug uptake
Assay Readout: concentration at 5 h (nM)
Numbers only, in nM.

Briefly, concentration at 5 h measured for "C[C@]12CCCO[C@@H]1[C@]1(COC(N)=N1)c1cc(-c3cccc(C#N)c3)ccc1O2" : 230

====

tested on: CHO; experiment: Ratio of IC50 for cathepsin D purified from human spleen to IC50 for purified recombinant human BACE1 expressed in CHO cells
Provide the recorded Ratio IC50 for the entries that follow.
Give bare numbers.

C[C@]12CCCO[C@@H]1[C@]1(CSC(N)=N1)c1cc(-c3cc(F)cc(Cl)c3)ccc1O2 (relative stereo) : 830
C[C@]12CCCO[C@@H]1[C@]1(COC(N)=N1)c1cc(-c3cc(F)cc(Cl)c3)ccc1O2 (relative stereo) : 530
C[C@]12CCCO[C@@H]1[C@]1(COC(N)=N1)c1cc(-c3cncc(Cl)c3)ccc1O2 (racemic) : 2100

Now for a further molecule.
Briefly, Ratio IC50 measured for C[C@]12CCCO[C@@H]1[C@]1(COC(N)=N1)c1cc(-c3cccc(C#N)c3)ccc1O2 (racemic) : 840

====

test system: MDR1 (human); test: Apparent permeability from apical to basolateral side in pig LLC-PK1 cells transfected with human MDR1; assay type: ADME, cell-based, Sus scrofa; details: LLC-PK1
Provide the recorded Papp A→B for the entries that follow.
Give bare numbers, in ×10⁻⁶ cm/s.

Past entries and their recorded results:
CN1C(=O)[C@]2(N=C1N)c1cc(-c3cccnc3F)ccc1O[C@H]1CCCO[C@@H]12 (relative stereo) : 6.8
C[C@]12CCCO[C@@H]1[C@]1(CSC(N)=N1)c1cc(-c3cncc(Cl)c3)ccc1O2 (relative stereo) : 12
C[C@]12CCCO[C@@H]1[C@]1(CSC(N)=N1)c1cc(-c3cccc(C#N)c3)ccc1O2 (relative stereo) : 14

Now for a further compound.
Briefly, Papp A→B measured for C[C@]12CCCO[C@@H]1[C@]1(CSC(N)=N1)c1cc(-c3cccnc3F)ccc1O2 (relative stereo) : 31

====

tested on: Brain; test: Free drug level in CD-1 mouse brain at 3 mg/kg, iv and 10 mg/kg, po measured at 4 hrs post dose; assay type: ADME, organism-based; details: in vivo
Provide the recorded Drug uptake for the entries that follow.
Answers are plain numbers, in nM.

For the 4 molecules below, give their Drug uptake values.
1. CN1C(=O)[C@]2(N=C1N)c1cc(-c3cccnc3F)ccc1O[C@H]1CCCO[C@@H]12 (relative stereo)
2. C[C@]12CCCO[C@@H]1[C@]1(COC(N)=N1)c1cc(-c3cccc(C#N)c3)ccc1O2 (racemic)
3. C[C@]12CCCO[C@@H]1[C@]1(COC(N)=N1)c1cc(-c3cccnc3F)ccc1O2 (relative stereo)
4. CN1C(=O)[C@]2(N=C1N)c1cc(-c3cccnc3F)ccc1O[C@H]1CCOC[C@@H]12

1. 1.6
2. 7.5
3. 1.1
4. 8.4
